- Tested on: SNB-75 CNS
- protocol-summary: NCI tumour cell line growth inhibition, 48 h
Documented TGI across a set of molecules
Give just the number in µM; leave the unit off.

Worked cases, answers included:
- molecule: "Brc1cccc(-c2cc(-c3ccc4nccnc4c3)[nH]n2)c1"
  val: 2.38
- molecule: "O=[N+]([O-])c1ccc2c(Nc3ccccc3-c3ccccc3Nc3c4ccccc4nc4cc([N+](=O)[O-])ccc34)c3ccccc3nc2c1"
  val: 34.5
- molecule: "COc1cc(C2CC(=O)Nc3c2cc(Br)c2ccccc32)cc(Br)c1OC (centres undefined)"
  val: 2.52
- molecule: "Cc1c2ccncc2c(C)c2c1c1cc(CO)ccc1n2C"
  val: 2.7

stdin: Recorded TGI for CN(C)Cc1cc(C(=O)/C=C/c2cccc(Cl)c2)cc(CN(C)C)c1O , please?
stdout: 6.43
